target: human cloned 5-HT2C receptor (Homo sapiens, UniProt P28335); construct: expressed in transfected cells; host or cells: CHO cells; experiment: In vitro binding affinity for 5-HT2C receptor (radioligand binding); settings: human cloned 5-HT2C receptor expressed in CHO cells, [3H]mesulergine radioligand; read-out: 5-HT2C (pIC50) (converted)
Sequence (P28335 33-458): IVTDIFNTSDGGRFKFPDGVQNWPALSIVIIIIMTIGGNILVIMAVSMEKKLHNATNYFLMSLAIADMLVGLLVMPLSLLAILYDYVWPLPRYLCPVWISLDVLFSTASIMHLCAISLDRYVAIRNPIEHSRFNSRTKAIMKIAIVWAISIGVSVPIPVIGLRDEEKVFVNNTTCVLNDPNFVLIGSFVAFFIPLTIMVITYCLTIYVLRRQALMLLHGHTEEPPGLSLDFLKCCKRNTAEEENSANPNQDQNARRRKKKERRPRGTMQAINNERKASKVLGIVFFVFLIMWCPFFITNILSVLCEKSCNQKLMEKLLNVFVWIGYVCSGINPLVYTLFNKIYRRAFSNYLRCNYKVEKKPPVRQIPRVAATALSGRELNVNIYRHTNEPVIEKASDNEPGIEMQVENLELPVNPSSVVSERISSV
Flag rule - IC50 less than 50 nM flags yes (1); the remaining entries get no (0).

Please let me know if C[C@@H]1c2ccccc2[C@H]2C[C@H](CN(C)C)O[C@@H]2c2cc(N(C)C)ccc21 [Compound 78] shows IC50 below 50 nM.
no (0)

Please let me know if CNC[C@H]1C[C@@H]2c3ccccc3[C@@H](OC(C)C)c3ccc(F)cc3[C@H]2O1 [Compound 63] shows IC50 below 50 nM.
no (0)

Please let me know if COC1c2ccccc2[C@H]2C[C@H](CN(C)C)O[C@@H]2c2cc(F)ccc21 (stereo partly shown) [Compound 60] shows IC50 below 50 nM.
yes (1)

Please let me know if CCNCC1CC2c3ccccc3C(C)(O)c3ccc(F)cc3C2O1 (single isomer, unassigned) [Compound 119] shows IC50 below 50 nM.
yes (1)

Please let me know if CNCC1CC2c3ccccc3C(C)c3ccc(F)cc3C2O1 (single isomer, unassigned) [Compound 100] shows IC50 below 50 nM.
no (0)

Please let me know if CNCC1CC2c3ccccc3C(C)(O)c3ccc(F)cc3C2O1 (single isomer, unassigned) [Compound 124] shows IC50 below 50 nM.
no (0)

Please let me know if OC1c2ccccc2C2CC(CNCc3ccccc3)OC2c2cc(F)ccc21 (stereo not shown) [Compound 109] shows IC50 below 50 nM.
yes (1)

Please let me know if NC[C@H]1C[C@@H]2c3ccccc3[C@@H](O)c3ccc(F)cc3[C@H]2O1 [Compound 104] shows IC50 below 50 nM.
yes (1)

Please let me know if CNCC1CC2c3cc(F)ccc3C(C)(O)c3ccccc3C2O1 (single isomer, unassigned) [Compound 115] shows IC50 below 50 nM.
no (0)

Please let me know if C=C1c2ccc(F)cc2C2CC(CN(C)C)OC2c2cc(F)ccc21 (stereo not shown) [Compound 29] shows IC50 below 50 nM.
yes (1)

Please let me know if CCNCC1CC2c3ccccc3C(C)(O)c3ccc(F)cc3C2O1 (single isomer, unassigned) [Compound 118] shows IC50 below 50 nM.
no (0)

Please let me know if CNC[C@H]1C[C@@H]2c3cc(F)ccc3[C@@H](C)c3ccccc3[C@H]2O1 [Compound 101] shows IC50 below 50 nM.
yes (1)

Please let me know if C[C@@H]1c2ccccc2[C@H]2C[C@H](CN(C)C)O[C@@H]2c2cc(F)ccc21 [Compound 66] shows IC50 below 50 nM.
yes (1)

The measurements presented in this section are drawn from patent US20070197525A1.
